# log P annotations
Assay: Determination of the log P values by HPLC on a reversed-phase column (C18)
Assay type: physicochemical
Conditions: compounds of the formula (III), cis/trans isomer mixture; second value of the cell
Answer with a bare number; do not write a unit.

Please review the entries below; each comes with its answer.
CCOC(=O)C1(OC(=O)Cc2c(C)ccc(-c3ccc(Cl)cc3)c2C)CCC(COC)CC1 (mixture of isomers) :: 5.96
CCOC(=O)C1(OC(=O)Cc2c(C)cc(Br)cc2C)CCC(CCOC)CC1 (mixture of isomers) :: 5.29
CCOC(=O)C1(OC(=O)Cc2c(C)cc(C)cc2C)CCCC(CCOC)C1 (mixture of isomers) :: 5.05
CCOC(=O)C1(OC(=O)Cc2cc(C)c(-c3ccc(Cl)cc3)cc2C)CCCC(CCOC)C1 (mixture of isomers) :: 6.12
CCOC(=O)C1(OC(=O)Cc2cc(-c3ccc(Cl)cc3)ccc2C)CCCC(COC)C1 (mixture of isomers) :: 5.58
CCOC(=O)C1(OC(=O)Cc2cc(C)c(C)cc2C)CCC(COC)CC1 (mixture of isomers) :: 4.85

Using the record for CCOC(=O)C1(OC(=O)Cc2c(CC)cc(C)cc2CC)CCC(COC)CC1 (mixture of isomers) , state its measured log P. 5.51

Using the record for CCOC(=O)C1(OC(=O)Cc2cc(C)c(C)cc2C)CCC(CCOC)CC1 (mixture of isomers) , state its measured log P. 5.09

###

Test: Determination of the log P values by HPLC on a reversed-phase column (C18)
Type: physicochemical
Conditions: compounds of the formula (I-2-a); m.p. ° C./log P
measuredMetric: log P

CCc1cc(Br)cc(CC)c1C1=C(O)C2(CCCC(COC)C2)OC1=O (stereo not shown) :: oil/3.44
CCc1cc(C)cc(CC)c1C1=C(O)C2(CCCC(CCOC)C2)OC1=O (stereo not shown) :: oil/3.44

###

# log P annotations
Experiment: Determination of the log P values by HPLC on a reversed-phase column (C18)
Type: physicochemical
Settings: compounds of the formula (III), cis/trans isomer mixture; second value of the cell
Answer with a bare number; do not write a unit.

CCOC(=O)C1(OC(=O)Cc2c(C)cc(Cl)cc2C)CCCC(CCOC)C1 (mixture of isomers) [III-20] :: 5.11
CCOC(=O)C1(OC(=O)Cc2cc(-c3ccc(Cl)cc3)ccc2C)CCC(COC)CC1 (mixture of isomers) [III-8] :: 5.49
CCOC(=O)C1(OC(=O)Cc2c(CC)cc(C)cc2CC)CCCC(CCOC)C1 (mixture of isomers) [III-24] :: 5.66
CCOC(=O)C1(OC(=O)Cc2cc(C)c(-c3ccc(Cl)cc3)cc2C)CCC(COC)CC1 (mixture of isomers) [III-15] :: 5.98

Next molecule, please.
Using the record for CCOC(=O)C1(OC(=O)Cc2c(C)cc(Br)cc2C)CCC(COC)CC1 (mixture of isomers) [III-9] , state its measured log P. 5.01

###

Experiment: Determination of the log P values by HPLC on a reversed-phase column (C18)
Assay type: physicochemical
Details: compounds of the formula (III), cis/trans isomer mixture; second value of the cell
measuredMetric: log P
Answer with a bare number; do not write a unit.

Please review the entries below; each comes with its answer.
CCOC(=O)C1(OC(=O)Cc2c(C)cc(C)cc2C)CCCC(COC)C1 (mixture of isomers) [III-6] :: 4.94
CCOC(=O)C1(OC(=O)Cc2c(C)cc(C)cc2C)CCC(COC)CC1 (mixture of isomers) [III-12] :: 4.88
CCOC(=O)C1(OC(=O)Cc2c(CC)cc(Br)cc2CC)CCC(COC)CC1 (mixture of isomers) [III-13] :: 5.65
CCOC(=O)C1(OC(=O)Cc2c(CC)cc(Br)cc2CC)CCC(CCOC)CC1 (mixture of isomers) [III-32] :: 5.90
CCOC(=O)C1(OC(=O)Cc2cc(-c3ccc(Cl)cc3)ccc2Cl)CCC(COC)CC1 (mixture of isomers) [III-16] :: 5.67
CCOC(=O)C1(OC(=O)Cc2c(C)ccc(-c3ccc(Cl)cc3)c2C)CCCC(CCOC)C1 (mixture of isomers) [III-27] :: 6.09

Using the record for CCOC(=O)C1(OC(=O)Cc2cc(-c3ccc(Cl)cc3)ccc2C)CCC(CCOC)CC1 (mixture of isomers) [III-28] , state its measured log P. 5.81

Values compiled from patent US8138119B2.
